Target: T1, polypeptide GC3pep (human)
T1 construct: also called membrane proximal polypeptide GC3pep
T1 peptide: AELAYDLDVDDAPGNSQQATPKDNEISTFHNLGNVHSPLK
Experiment: ELISA, GC3pep coated, antibody 1 nM;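 note: bound antibody detected with an HRP-conjugated secondary antibody and TMB substrate, reaction stopped with HCl, after 2 h binding at 37 °C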
reported endpoint: OD450 nm (OD450 nm)
# value in OD450 nm; strip the unit string

F2.55.11 (antibody, human IgG1, kappa, V domains shown, human-murine chimeric antibody) VH: EVKLVESGGGLVKPGGSLKLSCAASGLTFSTCTMSWVRQTPAKRLEWVATISSGGGNTYYPDSVKGRFTISRDNARNTLYLQMSSLRSEDTAMYYCVRLYYDGSPYAMDYWGQGTSVTVSS VL: DIQMTQTTSSLSASLGDRVTISCRASQDISNHLNWYQQKPDGTVKLLIYYTSRLHSGVPSRFSGSGSGTDYSLTISNLEQEDIATYFCQQDSKPPPTFGSGTKLEIKR: 2.41

Proceed to the following item.
Exercise: Which OD450 nm value is on record for F1.110.24 (antibody, human IgG1, kappa, V domains shown, human-murine chimeric antibody) VH: EVKLVESGGGLVQPGGSLKLSCAASGFTFSDFYMYWVRQTPEKRLEWVAFISNGGGSTYYPDTVKGRFTISRDNVKNTLYLQMSRLKSEDTAMYYCARPDTSWFAYWGQGSLVTVSA VL: DIQMTQTTSSLSASLGDRVTISCRASQDIDNYLNWYQQKPDGTVKVLISYTSRLHSGVPSRFSGSGSGTDYSLTISNLEQEDIATYFCQQGNTLPWTFGGGTKLEIKR ?
Solution: 0.04

Origin of values: patent US20260116991A1
